# Test system: LC-2-ad
# Assay name: relative viability (nuclei count vs DMSO), 5 days (fraction); higher = more cells survive
# Applied conditions: first compound 2 µM
This section presents compounds with their documented relative viability values.
Measured metric: relative viability

Compound | Measured metric | Assay value
Cc1csc(=NC2CCCCC2)n1/N=C/c1ccc(O)c(O)c1O [MIM1] + C[C@]1(O)C[C@@H](c2nc(-c3ccc4ccc(-c5ccccc5)nc4c3)c3c(N)nccn32)C1 [Linsitinib] (partner 1 µM) | relative viability | 0.856
Cc1csc(=NC2CCCCC2)n1/N=C/c1ccc(O)c(O)c1O [MIM1] + Cc1nc(Nc2ncc(C(=O)Nc3c(C)cccc3Cl)s2)cc(N2CCN(CCO)CC2)n1 [Dasatinib] (partner 0.075 µM) | relative viability | 0.527
CN1CCN(CCOc2cc(OC3CCOCC3)c3c(Nc4c(Cl)ccc5c4OCO5)ncnc3c2)CC1 [Saracatinib] + C[C@@H](Oc1cc(-c2cnn(C3CCNCC3)c2)cnc1N)c1c(Cl)ccc(F)c1Cl [Crizotinib] (partner 1 µM) | relative viability | 0.371
Cc1csc(=NC2CCCCC2)n1/N=C/c1ccc(O)c(O)c1O [MIM1] + CS(=O)(=O)N1CCN(Cc2cc3nc(-c4cccc5[nH]ncc45)nc(N4CCOCC4)c3s2)CC1 [Pictilisib] (partner 1 µM) | relative viability | 0.508
Cc1csc(=NC2CCCCC2)n1/N=C/c1ccc(O)c(O)c1O [MIM1] + N=C(N)NC(=N)NCCc1ccccc1 [Phenformin] (partner 250 µM) | relative viability | 0.537
Cc1csc(=NC2CCCCC2)n1/N=C/c1ccc(O)c(O)c1O [MIM1] + C[C@@H](Oc1cc(-c2cnn(C3CCNCC3)c2)cnc1N)c1c(Cl)ccc(F)c1Cl [Crizotinib] (partner 1 µM) | relative viability | 0.34
Cc1csc(=NC2CCCCC2)n1/N=C/c1ccc(O)c(O)c1O [MIM1] + Cc1cc(Nc2cc(N3CCN(C)CC3)nc(Sc3ccc(NC(=O)C4CC4)cc3)n2)n[nH]1 [Tozasertib] (partner 0.1 µM) | relative viability | 0.367
CN1CCN(CCOc2cc(OC3CCOCC3)c3c(Nc4c(Cl)ccc5c4OCO5)ncnc3c2)CC1 [Saracatinib] + CC(C)C[C@H](NC(=O)[C@H](Cc1ccccc1)NC(=O)c1cnccn1)B(O)O [Bortezomib] (partner 0.002 µM) | relative viability | 0.843
Cc1csc(=NC2CCCCC2)n1/N=C/c1ccc(O)c(O)c1O [MIM1] + NC(=O)Nc1cc(-c2cccc(F)c2)sc1C(=O)N[C@H]1CCCNC1 [AZD7762] (partner 0.2 µM) | relative viability | 0.9

====

# Tested on: NCI-H3122
# Assay name: relative viability (nuclei count vs DMSO), 5 days (fraction); higher = more cells survive
# Applied conditions: first compound 0.6325 µM
Strictly below 0.7 in relative viability: 1. Otherwise: 0.

Compound | Assigned class
CN1CCN(CCOc2cc(OC3CCOCC3)c3c(Nc4c(Cl)ccc5c4OCO5)ncnc3c2)CC1 [Saracatinib] + NC(=O)Nc1cc(-c2cccc(F)c2)sc1C(=O)N[C@H]1CCCNC1 [AZD7762] (partner 0.2 µM) | 0
CN1CCN(CCOc2cc(OC3CCOCC3)c3c(Nc4c(Cl)ccc5c4OCO5)ncnc3c2)CC1 [Saracatinib] + CS(=O)(=O)N1CCN(Cc2cc3nc(-c4cccc5[nH]ncc45)nc(N4CCOCC4)c3s2)CC1 [Pictilisib] (partner 1 µM) | 1
CN1CCN(CCOc2cc(OC3CCOCC3)c3c(Nc4c(Cl)ccc5c4OCO5)ncnc3c2)CC1 [Saracatinib] + N=C(N)NC(=N)NCCc1ccccc1 [Phenformin] (partner 250 µM) | 1
CN1CCN(CCOc2cc(OC3CCOCC3)c3c(Nc4c(Cl)ccc5c4OCO5)ncnc3c2)CC1 [Saracatinib] + Nc1nc2[nH]cc(CCc3ccc(C(=O)N[C@@H](CCC(=O)O)C(=O)O)cc3)c2c(=O)[nH]1 [Pemetrexed] (partner 0.2 µM) | 1

====

# Test system: NCI-H1944
# Assay name: relative viability (nuclei count vs DMSO), 5 days (fraction); higher = more cells survive
# Applied conditions: first compound 20 µM
Attribute: relative viability

Compound | relative viability
Cc1csc(=NC2CCCCC2)n1/N=C/c1ccc(O)c(O)c1O [MIM1] + Cc1cc(Nc2cc(N3CCN(C)CC3)nc(Sc3ccc(NC(=O)C4CC4)cc3)n2)n[nH]1 [Tozasertib] (partner 0.1 µM) | 0.143
Cc1csc(=NC2CCCCC2)n1/N=C/c1ccc(O)c(O)c1O [MIM1] + Cc1nc(NC(=O)N2CCC[C@H]2C(N)=O)sc1-c1ccnc(C(C)(C)C(F)(F)F)c1 [Alpelisib] (partner 2 µM) | 0.882
Cc1csc(=NC2CCCCC2)n1/N=C/c1ccc(O)c(O)c1O [MIM1] + O=C(CCCCCCC(=O)Nc1ccccc1)NO [Vorinostat] (partner 1 µM) | 0.228
Cc1csc(=NC2CCCCC2)n1/N=C/c1ccc(O)c(O)c1O [MIM1] + COc1cc2c(Oc3ccc(NC(=O)C4(C(=O)Nc5ccc(F)cc5)CC4)cc3F)ccnc2cc1OCCCN1CCOCC1 [Foretinib] (partner 0.25 µM) | 0.564
Cc1csc(=NC2CCCCC2)n1/N=C/c1ccc(O)c(O)c1O [MIM1] + Nc1nc2[nH]cc(CCc3ccc(C(=O)N[C@@H](CCC(=O)O)C(=O)O)cc3)c2c(=O)[nH]1 [Pemetrexed] (partner 0.2 µM) | 0.233

====

# System: NCI-H647
# Assay name: relative viability (nuclei count vs DMSO), 5 days (fraction); higher = more cells survive
# Applied conditions: first compound 0.003162 µM
Cut-off 0.4 on relative viability: below means T, at or above means F.

Compound | Assay system | Assigned class
Cc1cn(-c2cc(NC(=O)c3ccc(C)c(Nc4nccc(-c5cccnc5)n4)c3)cc(C(F)(F)F)c2)cn1 [Nilotinib] + CC(C)C[C@H](NC(=O)[C@H](Cc1ccccc1)NC(=O)c1cnccn1)B(O)O [Bortezomib] (partner 0.002 µM) | NCI-H647 | F
Cc1cn(-c2cc(NC(=O)c3ccc(C)c(Nc4nccc(-c5cccnc5)n4)c3)cc(C(F)(F)F)c2)cn1 [Nilotinib] + Nc1nc2[nH]cc(CCc3ccc(C(=O)N[C@@H](CCC(=O)O)C(=O)O)cc3)c2c(=O)[nH]1 [Pemetrexed] (partner 0.2 µM) | NCI-H647 | T
Cc1cn(-c2cc(NC(=O)c3ccc(C)c(Nc4nccc(-c5cccnc5)n4)c3)cc(C(F)(F)F)c2)cn1 [Nilotinib] + Cc1nc(Nc2ncc(C(=O)Nc3c(C)cccc3Cl)s2)cc(N2CCN(CCO)CC2)n1 [Dasatinib] (partner 0.075 µM) | NCI-H647 | T
Cc1cn(-c2cc(NC(=O)c3ccc(C)c(Nc4nccc(-c5cccnc5)n4)c3)cc(C(F)(F)F)c2)cn1 [Nilotinib] + CC(=O)c1c(C)c2cnc(Nc3ccc(N4CCNCC4)cn3)nc2n(C2CCCC2)c1=O [Palbociclib] (partner 0.5 µM) | NCI-H647 | T
Cc1cn(-c2cc(NC(=O)c3ccc(C)c(Nc4nccc(-c5cccnc5)n4)c3)cc(C(F)(F)F)c2)cn1 [Nilotinib] + N=C(N)NC(=N)NCCc1ccccc1 [Phenformin] (partner 250 µM) | NCI-H647 | F
Cc1cn(-c2cc(NC(=O)c3ccc(C)c(Nc4nccc(-c5cccnc5)n4)c3)cc(C(F)(F)F)c2)cn1 [Nilotinib] + CS(=O)(=O)CCNCc1ccc(-c2ccc3ncnc(Nc4ccc(OCc5cccc(F)c5)c(Cl)c4)c3c2)o1 [Lapatinib] (partner 2 µM) | NCI-H647 | F

====

Quick reference for relative viability among some compounds
# Test system: EMC-BAC-2
# Assay name: relative viability (nuclei count vs DMSO), 5 days (fraction); higher = more cells survive
# Applied conditions: first compound 8 µM
Measured metric: relative viability

Compound | Assay value
Nc1cccc2c1CN(C1CCC(=O)NC1=O)C2=O (stereo unspecified) [Lenalidomide] + O=C(CCCCCCC(=O)Nc1ccccc1)NO [Vorinostat] (partner 1 µM) | 0.335
Nc1cccc2c1CN(C1CCC(=O)NC1=O)C2=O (stereo unspecified) [Lenalidomide] + Nc1ncn([C@H]2C[C@H](O)[C@@H](CO)O2)c(=O)n1 [Decitabine] (partner 2 µM) | 0.801
Nc1cccc2c1CN(C1CCC(=O)NC1=O)C2=O (stereo unspecified) [Lenalidomide] + CC1(C)CCC(c2ccc(Cl)cc2)=C(CN2CCN(c3ccc(C(=O)NS(=O)(=O)c4ccc(N[C@H](CCN5CCOCC5)CSc5ccccc5)c(S(=O)(=O)C(F)(F)F)c4)cc3)CC2)C1 [Navitoclax] (partner 0.5 µM) | 0.975
Nc1cccc2c1CN(C1CCC(=O)NC1=O)C2=O (stereo unspecified) [Lenalidomide] + Nc1nc2[nH]cc(CCc3ccc(C(=O)N[C@@H](CCC(=O)O)C(=O)O)cc3)c2c(=O)[nH]1 [Pemetrexed] (partner 0.2 µM) | 0.463
Nc1cccc2c1CN(C1CCC(=O)NC1=O)C2=O (stereo unspecified) [Lenalidomide] + CC(=O)c1c(C)c2cnc(Nc3ccc(N4CCNCC4)cn3)nc2n(C2CCCC2)c1=O [Palbociclib] (partner 0.5 µM) | 0.448
Nc1cccc2c1CN(C1CCC(=O)NC1=O)C2=O (stereo unspecified) [Lenalidomide] + Cc1cc(Nc2cc(N3CCN(C)CC3)nc(Sc3ccc(NC(=O)C4CC4)cc3)n2)n[nH]1 [Tozasertib] (partner 0.1 µM) | 0.333
